Documented pIC50 across a set of compounds
# MEASURED_ON: C-C chemokine receptor type 9 (Homo sapiens, UniProt P51686)
# Sequence (P51686 whole entry): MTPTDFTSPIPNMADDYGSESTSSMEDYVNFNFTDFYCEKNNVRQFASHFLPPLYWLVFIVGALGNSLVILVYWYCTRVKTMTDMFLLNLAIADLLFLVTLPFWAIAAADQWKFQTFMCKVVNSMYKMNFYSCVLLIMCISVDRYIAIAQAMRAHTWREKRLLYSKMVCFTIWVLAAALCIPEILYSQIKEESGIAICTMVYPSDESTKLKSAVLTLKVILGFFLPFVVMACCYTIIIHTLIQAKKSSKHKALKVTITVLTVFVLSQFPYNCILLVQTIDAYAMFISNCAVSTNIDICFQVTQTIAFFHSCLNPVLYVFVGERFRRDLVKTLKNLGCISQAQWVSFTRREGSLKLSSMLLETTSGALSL
# TEST: Antagonist activity against CCR9 in human MOLT4 cells assessed as inhibition of human recombinant TECK-induced calcium response pre-treated before TECK stimulation by Flou-4-AM dye based FLIPR assay
# Format: functional, cell-based, MOLT-4
pIC50: −log10 of the molar value.

O=C(c1ccncc1)c1cc(Cl)ccc1NS(=O)(=O)c1ccc(-c2ccc[nH]2)cc1 :: < 6.00
CC(C)(C)c1ccc(S(=O)(=O)Nc2ccc(Cl)cc2C(=O)c2ccncc2)cc1 :: > 6.00
O=C(c1ccncc1)c1cc(Cl)ccc1NS(=O)(=O)c1ccc(N2CCOCC2)c(F)c1 :: > 6.00
Cc1ccc(C(=O)c2cc(Cl)ccc2NS(=O)(=O)c2ccc(-c3nnc(C)o3)cc2)cn1 :: < 6.00
Cc1cccc(C(=O)c2cc(Cl)ccc2NS(=O)(=O)c2ccc(-c3cnco3)cc2)n1 :: > 6.00
O=C(c1ccncc1)c1cc(Cl)ccc1NS(=O)(=O)c1ccc(-c2ccsc2)cc1 :: > 6.00

Problem: Param item = "CC(C)(c1ccc(S(=O)(=O)Nc2ccc(Cl)cc2C(=O)c2cc[n+]([O-])cc2)cc1)c1cnco1" ; retrieve measured pIC50.
Solution: > 6.00

Problem: Give the measured pIC50 of "O=C(c1ccncc1)c1cc(Cl)ccc1NS(=O)(=O)c1ccc(N2CCNCC2)cc1" .
Solution: < 6.00

Problem: Which pIC50 reading was recorded for the compound "Cc1cccc(C(=O)c2cc(Cl)ccc2NS(=O)(=O)c2ccc(C(C)(C)C)cc2)n1" ?
Solution: > 6.00

Problem: # input compound: "Cc1cc(C(=O)c2cc(Cl)ccc2NS(=O)(=O)c2ccc(OC(C)C)cc2)cc[n+]1[O-]" ; wanted: its pIC50
Solution: > 6.00

Problem: What value of pIC50 has been recorded for this entry: "Cn1nc(C(=O)c2cc(Cl)ccc2NS(=O)(=O)c2ccc(C(C)(C)C)cc2)c2ccccc21"
Solution: < 6.00

Problem: What value of measured pIC50 is listed for "Cc1ccc(C(=O)c2cc(Cl)ccc2NS(=O)(=O)c2ccc(C(C)(C)c3ncco3)cc2)cn1" ?
Solution: > 6.00

Problem: Sample "CC(C)(C)c1ccc(S(=O)(=O)Nc2ccc(S(=O)(=O)N3CCCC3)cc2C(=O)c2cc[n+]([O-])cc2)cc1" — what was its pIC50?
Solution: < 6.00

Problem: # lookup: pIC50 of "O=C(c1ccncc1)c1cc(Cl)ccc1NS(=O)(=O)c1ccc(N2CCOCC2)cc1"
Solution: > 6.00

Problem: Which pIC50 is listed for "CS(=O)(=O)c1ccc(S(=O)(=O)Nc2ccc(Cl)cc2C(=O)c2ccncc2)cc1" ?
Solution: < 6.00

Problem: # get_value(readout='pIC50', item= "CC(=O)c1ccc(S(=O)(=O)Nc2ccc(Cl)cc2C(=O)c2ccnc(C)c2)cc1" )
Solution: < 6.00

Problem: Report pIC50 for "Cc1cccc(C(=O)c2cc(Cl)ccc2NS(=O)(=O)c2ccc(C(C)(C)c3ncco3)cc2)n1" please.
Solution: > 6.00

Problem: State the recorded pIC50 for this entry: "CSc1ccc(C(=O)c2cc(Cl)ccc2NS(=O)(=O)c2ccc(C(C)(C)C)cc2)cn1"
Solution: > 6.00

Problem: Entry "CC(C)(C)OC(=O)n1cccc1-c1ccc(S(=O)(=O)Nc2ccc(Cl)cc2C(=O)c2ccncc2)cc1" has what pIC50?
Solution: < 6.00

Problem: Return reported pIC50; argument: "Cc1ccc(C(=O)c2cc(Cl)ccc2NS(=O)(=O)c2ccc(N3CCOCC3)cc2)c[n+]1[O-]"
Solution: > 6.00
